tested on: Staphylococcus epidermidis; test: Antibacterial activity against drug-sensitive Staphylococcus epidermidis ATCC 12228 by broth microdilution method; assay type: functional

[
  {
    "sample smiles": "Clc1ccccc1-c1nnc2sc(Nc3ccc(Br)cc3)nn12",
    "MBC [µg/mL]": 3.91
  },
  {
    "sample smiles": "Clc1ccc(Nc2nn3c(-c4ccc(Cl)cc4)nnc3s2)cc1",
    "MBC [µg/mL]": 15.6
  },
  {
    "sample smiles": "CN[C@H](CC(C)C)C(=O)N[C@H]1C(=O)N[C@@H](CC(N)=O)C(=O)N[C@H]2C(=O)N[C@H]3C(=O)N[C@H](C(=O)N[C@H](C(=O)O)c4cc(O)cc(O)c4-c4cc3ccc4O)[C@H](O)c3ccc(c(Cl)c3)Oc3cc2cc(c3O[C@@H]2O[C@H](CO)[C@@H](O)[C@H](O)[C@H]2O[C@H]2C[C@](C)(N)[C@H](O)[C@H](C)O2)Oc2ccc(cc2Cl)[C@H]1O",
    "MBC [µg/mL]": 1.95
  }
]

###

test system: Staphylococcus aureus; assay: Ratio of MBC to MIC for methicillin-resistant Staphylococcus aureus ATCC 14001; format: functional
reported property: Ratio

[
  {
    "sample smiles": "Brc1ccc(Nc2nn3c(-c4ccccc4)nnc3s2)cc1",
    "result": 8
  },
  {
    "sample smiles": "Clc1ccc(Nc2nn3c(-c4ccc(Cl)cc4)nnc3s2)cc1",
    "result": 8
  },
  {
    "sample smiles": "CN[C@H](CC(C)C)C(=O)N[C@H]1C(=O)N[C@@H](CC(N)=O)C(=O)N[C@H]2C(=O)N[C@H]3C(=O)N[C@H](C(=O)N[C@H](C(=O)O)c4cc(O)cc(O)c4-c4cc3ccc4O)[C@H](O)c3ccc(c(Cl)c3)Oc3cc2cc(c3O[C@@H]2O[C@H](CO)[C@@H](O)[C@H](O)[C@H]2O[C@H]2C[C@](C)(N)[C@H](O)[C@H](C)O2)Oc2ccc(cc2Cl)[C@H]1O",
    "result": 4
  }
]
